B1: NCF4 (parent)
chain: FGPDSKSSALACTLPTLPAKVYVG

variants of: B1; test: protein stability index of a GFP-peptide fusion (GPS, HEK-293T) (PSI 1-6); higher = more stable; settings: c terminus: a fixed tail appended;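 note: lentivirally expressed fusions sorted by FACS into six bins by GFP to DsRed ratio, PSI derived from sequencing read proportions per bin multiplied by bin number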
result.type: protein stability index

Below, each entry is followed by its recorded protein stability index result.
- input.sequence: "GGPDSKSSALACTLPTLPAKVYVG [F1G]"
  protein stability index: 3.58
- input.sequence: "FGPDMKSSALACTLPTLPAKVYVG [S5M]"
  protein stability index: 1.89

Data request: So what's the measured protein stability index for this one? FGPDSKNSALACTLPTLPAKVYVG [S7N]
Data returned: 2.23

Data request: So what's the measured protein stability index for this one? FGPDSKSSALACTLPTLPAKVAVG [Y22A]
Data returned: 2.71

Data request: So what's the measured protein stability index for this one? FGPDSKSTALACTLPTLPAKVYVG [S8T]
Data returned: 1.89

Data request: So what's the measured protein stability index for this one? FGPDSKSSALACGLPTLPAKVYVG [T13G]
Data returned: 1.85

Data request: So what's the measured protein stability index for this one? LGPDSKSSALACTLPTLPAKVYVG [F1L]
Data returned: 2.99

Data request: So what's the measured protein stability index for this one? FGPDSHSSALACTLPTLPAKVYVG [K6H]
Data returned: 2.29

Data request: So what's the measured protein stability index for this one? FGPDSKSSALACTLPTLPAKVYVF [G24F]
Data returned: 2.92

Data request: So what's the measured protein stability index for this one? FGPDSKSSALACTLPTLPADVYVG [K20D]
Data returned: 2.64

Data request: So what's the measured protein stability index for this one? FGPDSKSSALACTLPTLPAKVYEG [V23E]
Data returned: 2.81
